test: HD50 (anaesthesia, loss of righting reflex) and LD50 in mice, intravenous; conditions: mouse, in vivo, LD50 dose in mice (general description), mice
outcomeMeasure: LD50 (mg/kg)
The reply should contain only the number, in mg/kg.

For "CC(C)c1cccc(C(C)C)c1O" , what is its reported LD50?
65

* * *

Exercise: for every item that follows, state its recorded selectivity ratio.
assay: HD50 (anaesthesia, loss of righting reflex) and LD50 in mice, intravenous; details: mouse, in vivo

For "CC(C)c1cccc(C(C)C)c1O" , what is its reported selectivity ratio?
4.14

For CCCC(C)C1(CC)C(=O)NC(=S)NC1=O (centres unmarked) [thiopentone sodium, reference compound] , what is its reported selectivity ratio?
4.26

* * *

Exercise: for every item that follows, state its recorded LD50.
experiment: HD50 (anaesthesia, loss of righting reflex) and LD50 in mice, intravenous; conditions: mouse, in vivo, LD50 (dose required to kill 5 out of 10 mice), mice, intravenous, 2,6-diisopropylphenol as 1% sterile solution of Example 14
The reply should contain only the number, in mg/kg.

For "CC(C)c1cccc(C(C)C)c1O" , what is its reported LD50?
56

For CCCC(C)C1(CC)C(=O)NC(=S)NC1=O (centres unmarked) [thiopentone sodium, reference compound] , what is its reported LD50?
100
